- target_or_system: T1, biotinylated CLL-1 (hCLL-1) (human, UniProt Q5QGZ9 65-265, limits assumed, biotinylated (site not stated))
- T1 sequence: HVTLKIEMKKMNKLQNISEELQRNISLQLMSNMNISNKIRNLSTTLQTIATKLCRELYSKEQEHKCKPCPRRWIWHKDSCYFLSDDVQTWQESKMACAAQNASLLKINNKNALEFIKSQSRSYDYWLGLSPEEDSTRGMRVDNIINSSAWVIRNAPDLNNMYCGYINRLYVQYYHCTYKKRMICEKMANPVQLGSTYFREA
- test_name: biotinylated CLL-1 on streptavidin sensor tips; antibody at 10, 30, 90 ug/ml; global 1:1 fit
value_kind: log10(Kd) (log10 of the value in pM)

>>> result_value("CLL-1 antibody clone M31 (antibody, IgG2a, V domains shown) VH: EVQLQQSGPELVKPGASVKMSCKASGYTFTSYVMHWVKQKPGQGLEWIGYINPYNDGTKYNEKFKGKATLTSDTSSSTAYMELNSLTSEDSAVYFCARPIYFDNDYFDYWGQGTTLKVSS VL: TIVLTQSPASLAVSLGQRATISCRASESVDSYGNSFMHWYQQKPGQPPKLLIYLASNLESGVPARFSGSGSRTDFTLTIDPVEADDAATYYCQQNNYDPWTFGGGTKLEIK")
2.79
>>> result_value("CLL-1 antibody clone G12 (antibody, IgG1, V domains shown) VH: QVQLQQPGAELVKPGASMKMSCKASGYTFPSSNIHWLKQTPGQGLEWIGVIYPGNGDTSYNQKFKDKATLTTDKSSSTAYMQLSSLTSEDSAIYFCARVYNWHFDVWGAGTTVTVSS VL: NIVLTQSPASLAVSLGQRATISCRASESVDGYGDIFMLWYQQKPGQPPKLLIYFASNLESGVPARFSGSGSRTDFTLTIDPVEADDAATYYCQQNNEDPYTFGGGTKLEIKR")
1.85
>>> result_value("CLL-1 antibody clone M22 (antibody, IgG2a, V domains shown) VH: QVQLQQPGAELVKPGASVKLSCKASGYTFTRYWMHWVKQRPGQGLEWIGNIDPSDTETHYNQQFKDKATLTVDKSSSTAYMQLSSLTSEDSAVYYCAIYYGNPSYYAMDYWGQGTSVTVSS VL: DIVMTQSPSSLTVTAGEKVTMSCKSSQNLLNSGNQKKYLNWYQQKPGQPPKLLIYWASTRESGVPDRFTGSGSGTDFTLTISSVQAEDLAVYFCQNDYSYPFTFGAGTKLELK")
2.59
>>> result_value("CLL-1 antibody clone M5 (antibody, IgG2a, V domains shown) VH: EVQLQQSGAELVRPGASVKLSCTASGFNIKDDYIHWVKQRPEQGLEWIGWIDPEKGDTAYASKFQDKATITSDTSSNTAYLQLSSLTSEDTAVYYCTLTGRFDYWGQGTTLTVSS VL: DIVMSQSPSSLAVSVGEKVTMSCKSSQSLLYSSNQKNNLAWYQQKPGQSPKLLIYWASTRESGVPDRFTGSGSGTDFTLTISSVQAEDLAVYYCQQYYSYRTFGGGTKLEIK")
2.74
>>> result_value("CLL-1 antibody clone M29 (antibody, IgG1, V domains shown) VH: EVQLQQSGPELVKPGASVKMSCKASGYIFTSYVMYWVKQKPGQGLEWIGYINPYNDGTKYNEKFKGKATLTSDKSSSTAYMELSSLTSEDSAVYYCARYYDYDYYFDYWGQGTTLTVSS VL: DIQMTQSPSSLSASLGGKVTITCKASQDINKYIAWYQHKPGKGPRLLIHYTSTLQPGIPSRFSGSGSGRDYSFSISNLEPEDIATYYCLQYDYLWTFGGGTKLEIK")
3.17
